System: NCI-H23
ASSAY_PROCEDURE: Growth inhibition of human NCI-H23 cells at 10 uM by sulforhodamine B assay
Format: functional, cell-based
Activity calls are given as the source filed them. The rule behind the calls is not given here.
REPORTED_ENDPOINT: growth inhibition (GI)

Please review the entries below; each comes with its answer.
## Input Report measured growth inhibition (GI); entry is `COc1cc(-c2nc(-c3ccccc3)c(-c3ccccc3)n2C2CCCCC2)ccc1OC1CCCC1`
## Output Active

## Input Report measured growth inhibition (GI); entry is `COc1ccc(-c2nc(-c3ccccc3)c(-c3ccccc3)n2C2CC2)cc1OC1CCCCC1`
## Output Active

## Input Report measured growth inhibition (GI); entry is `C#CCn1c(-c2ccc(OC3CCCC3)c(OC)c2)nc(-c2ccccc2)c1-c1ccccc1`
## Output Active

## Input Report measured growth inhibition (GI); entry is `COc1ccc(-c2nc(-c3ccccn3)c(-c3ccccn3)n2CC(C)C)cc1OC1CCCC1`
## Output Active

## Input Report measured growth inhibition (GI); entry is `CCCCCCn1c(-c2ccc(OC)c(OC3CCCC3)c2)nc(-c2ccccc2)c1-c1ccccc1`
## Output Active

## Input Report measured growth inhibition (GI); entry is `C#CCn1c(-c2ccc(OC)c(OC3CCCC3)c2)nc(-c2ccccc2)c1-c1ccccc1`
## Output Active

## Input Report measured growth inhibition (GI); entry is `COc1cc(-c2nc(-c3ccccc3)c(-c3ccccc3)[nH]2)ccc1OC1CCCC1`
## Output Active

## Input Report measured growth inhibition (GI); entry is `COc1ccc(-c2nc(-c3ccccc3)c(-c3ccccc3)n2C2CC2)cc1OC1CCCC1`
## Output Active

## Input Report measured growth inhibition (GI); entry is `COc1cc(-c2nc(-c3ccccc3)c(-c3ccccc3)n2Cc2ccccc2)ccc1OC1CCCCC1`
## Output Active

Turning now to a further record.
## Input Report measured growth inhibition (GI); entry is `COc1ccc(-c2nc(-c3ccccc3)c(-c3ccccc3)[nH]2)cc1OC1CCCC1`
## Output Active
